System tested: human dopamine transporter (hDAT) (Homo sapiens)
Sequence (Q01959 whole entry): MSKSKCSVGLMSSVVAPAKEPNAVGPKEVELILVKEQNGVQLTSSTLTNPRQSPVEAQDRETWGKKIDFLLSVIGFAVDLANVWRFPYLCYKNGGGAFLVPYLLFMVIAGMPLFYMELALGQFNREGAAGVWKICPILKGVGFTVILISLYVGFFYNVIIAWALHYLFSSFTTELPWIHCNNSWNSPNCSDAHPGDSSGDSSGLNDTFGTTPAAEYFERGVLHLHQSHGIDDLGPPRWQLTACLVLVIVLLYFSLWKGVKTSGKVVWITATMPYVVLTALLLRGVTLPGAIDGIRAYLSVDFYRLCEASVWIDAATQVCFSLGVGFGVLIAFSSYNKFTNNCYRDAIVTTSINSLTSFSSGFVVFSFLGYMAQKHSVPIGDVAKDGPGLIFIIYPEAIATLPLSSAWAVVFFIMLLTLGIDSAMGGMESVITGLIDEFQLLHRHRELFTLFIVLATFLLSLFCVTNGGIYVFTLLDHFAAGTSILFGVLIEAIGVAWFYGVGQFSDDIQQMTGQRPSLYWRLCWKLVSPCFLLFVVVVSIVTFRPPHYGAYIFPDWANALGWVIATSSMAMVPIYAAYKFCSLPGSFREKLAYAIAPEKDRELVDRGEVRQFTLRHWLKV
Assay notes: cell-based
Format: cell-based
Measurement conditions: Hill fit of dose-response normalized to 10 μM DA; −60 mV
Could you please report measured Hill coefficients for the items listed next?

[in] Any idea what Hill coefficients was measured for NCCc1ccccc1 [β-PEA (5), 2-phenyl-1-aminoethane, reference compound] ?
[out] 1.06 ± 0.16

[in] Repeat for the following compound: C[C@H](N)Cc1ccc(O)cc1.Cl [S(+) α-Me 3-des-OH DA (S6)]
[out] 0.49 ± 0.05

[in] Here is the next compound: Br.C[C@H](N)Cc1ccc(O)c(O)c1 [S(+) α-Me DA (S7)]
[out] 0.71 ± 0.11

[in] What do we get for NCCc1cccc(O)c1 [4-des-OH DA (4), 2-(3-Hydroxyphenyl)-1-aminoethane] ?
[out] 1.07 ±0.09

[in] Consider next the compound Br.C[C@@H](N)Cc1ccc(O)c(O)c1 [R(−) α-Me DA (R7)] in the same way.
[out] 0.55 ± 0.06

[in] Lookup C[C@@H](N)Cc1ccc(O)cc1.Cl [R(−) α-Me 3-des-OH DA (R6)]
[out] 0.98 ± 0.08
